Test system: Brown Dog Tick (Rhipicephalus sanguineus)
Assay: Dose response protocol for topical application on brown dog ticks (LD50)
Type: in vivo
Conditions: 24 h mortality
Returns: string. Value is criterion met if measured R. sanguineus LD50 is below 3 μg/tick, and criterion not met if it is greater than or equal to it.

Compound: CCON=C(c1ccccc1)c1cc(Cl)ccc1NS(=O)(=O)C(F)(F)F (single isomer, unassigned) [Compound 177]
Assigned label: criterion not met
--
Compound: CC/C(=N\OC(C)CC)c1cc(Cl)ccc1NS(=O)(=O)C(F)(F)F (centres unmarked) [Compound 243]
Assigned label: criterion not met
--
Compound: C=CCO/N=C(\C)c1ccc(C(F)(F)F)cc1NS(=O)(=O)C(F)(F)F [Compound 241]
Assigned label: criterion met
--
Compound: CC/C(=N\OCc1ccc(C(F)(F)F)cc1)c1cc(Cl)ccc1NS(=O)(=O)C(F)(F)F [Compound 9]
Assigned label: criterion met
--
Compound: CC/C(=N\Oc1ccc(F)cc1)c1cc(Cl)ccc1NS(=O)(=O)C(F)(F)F [Compound 130]
Assigned label: criterion met

Enquiry: Strictly below 3 μg/tick: is that where R. sanguineus LD50 of CC/C(=N\OCCC(C)C)c1cc(Cl)ccc1NS(=O)(=O)C(F)(F)F [Compound 247] sits?
Return: criterion not met

Enquiry: Strictly below 3 μg/tick: is that where R. sanguineus LD50 of CC/C(=N\OCC1CC1)c1cc(Cl)ccc1NS(=O)(=O)C(F)(F)F [Compound 196] sits?
Return: criterion met

Enquiry: Strictly below 3 μg/tick: is that where R. sanguineus LD50 of C=CCO/N=C(\CC)c1cc(Cl)ccc1NS(=O)(=O)C(F)(F)F [Compound 156] sits?
Return: criterion met
